test: Toxicity liver stage against HepG2, at 10uM; assay type: cell-based; set-up: test concentration 10 uM, cell line HepG2-A16-CD81EGFP; conditions: human, HepG2-A16-CD81EGFP cells; read-out: INHIBITION
Reported cytotoxicity at 10 µM by item:
Kindly answer with a numeric value in %, unit omitted.

Here is how some molecules turned out for cytotoxicity at 10 µM.
{"molecule": "O=C(NCc1ccc(F)cc1F)C(c1cccnc1)N1CCOCC1 (centres undefined)", "result_units": "%", "cytotoxicity at 10 µM": -4.89}
{"molecule": "CCN(CC)CC[C@H]1CN(C(=O)NC2CCCCC2)CC[C@H]1CC(=O)O", "result_units": "%", "cytotoxicity at 10 µM": 7.77}
{"molecule": "CC(C)(C)c1cn(C2CCN(C3CCSC3)CC2)nn1 (centres undefined)", "result_units": "%", "cytotoxicity at 10 µM": -3.99}
{"molecule": "Cn1nc(CNC(=O)C2CCC2)cc1C1CC1", "result_units": "%", "cytotoxicity at 10 µM": -4.31}
{"molecule": "Cc1nnc(NC(=O)CN2CCCC(c3ccn[nH]3)C2)s1 (centres undefined)", "result_units": "%", "cytotoxicity at 10 µM": -37.6}

Tell us which cytotoxicity at 10 µM value is on record for "CC(C)NC(=O)CN1CCCNCC1"
-0.616

Identify measured cytotoxicity at 10 µM associated with CN(Cc1cnn(-c2ccccc2)n1)CC1CCCN1c1cccnn1 (centres undefined)
-6.56

Give the measured cytotoxicity at 10 µM for "Cc1cccc(COc2ccccc2C(=O)N2CCC(C(N)=O)CC2)c1"
-7.08

State its cytotoxicity at 10 µM for this molecule: CC(C)(C)c1ncc(CNCC2CN(C3CC3)CCO2)s1 (centres undefined)
0.948

Hello, please tell me recorded cytotoxicity at 10 µM for this one: "CN(Cc1ccc(-n2cccn2)cc1)c1nc(N)nc2c1CCNCC2"
6.99

Hello, please tell me recorded cytotoxicity at 10 µM for this one: "N#CC1(C(=O)N2C[C@H](Nc3ccnc(N)n3)[C@@H](C3CC3)C2)CCOCC1"
-1.2

Supply cytotoxicity at 10 µM value. Item: CC(=O)N1CCC(C(=O)N2CCCC(Cc3ccccn3)C2)CC1 (centres undefined)
6.97

Respond only with cytotoxicity at 10 µM recorded for "c1cnc(OCc2nnc3n2CCN(Cc2ccco2)C3)nc1"
-2.12

Determine its reported cytotoxicity at 10 µM: "O=C(c1cccc(F)c1)N1CCN2C[C@H](OCc3cccnc3)C[C@H]2C1"
4.4

Supply recorded cytotoxicity at 10 µM for "CCOCc1nn(CC2CC2)c2c1CN(Cc1ccco1)CC2" here.
2.7

State its cytotoxicity at 10 µM for this molecule: "O=C(N[C@@H]1CCN(C(=O)c2ccc(F)cc2Cl)C[C@H]1O)c1ccccn1"
-0.0395

Answer with the recorded cytotoxicity at 10 µM for the molecule listed here: "CCc1nc(CN(C)CC(N)=O)cs1"
-8.9

Give cytotoxicity at 10 µM for "CN1CCN(S(=O)(=O)C2CC2)Cc2cccnc21"
-108

Return the recorded cytotoxicity at 10 µM value; entry: "CC(C)OC[C@H]1CCC[C@]12CN(S(=O)(=O)C1CC1)CCO2"
-2.51

Recall and state the measured cytotoxicity at 10 µM for "CCOc1cc(F)ccc1NS(=O)(=O)c1cc(C)c(C(=O)O)s1" .
-10

Name the recorded cytotoxicity at 10 µM of the molecule listed here: CC(C)(C)c1ccc(OCC(=O)O)c(CN2C[C@H]3CC(O)C[C@H]3C2)c1 (some centres undefined)
3.46
